src = paper PMC12423301

- run description: Preclinical pharmacokinetics in monkeys
- Format: in vivo, Cynomolgus monkey
- conditions used: male, cynomolgus, cynomolgus monkey, in vivo, po, 30 mg/kg
reported endpoint: AUC(0-inf)

Reported AUC(0-inf), compound `CS(=O)(=O)O.C[C@H](NCc1ccc(-c2ccc(C(F)(F)F)cc2)cc1)C(N)=O` : ____
~202 µg·h/mL

---

- run description: in vivo
- Parameters: species or system SD Rat
- conditions used: SD, rat, iv, 1 mg/kg
reported endpoint: half-life (h)
Write the value in h as a bare number.

Reported half-life, molecule `CS(=O)(=O)O.C[C@H](NCc1ccc(-c2ccc(C(F)(F)F)cc2)cc1)C(N)=O` : ____
2.1

---

- run description: Preclinical pharmacokinetics in mice
- Type: in vivo, mouse
- conditions used: in vivo; ICR mouse, 5 mg/kg single intravenous administration
reported endpoint: half-life (h)
Write the value in h as a bare number.

Reported half-life, molecule `CS(=O)(=O)O.C[C@H](NCc1ccc(-c2ccc(C(F)(F)F)cc2)cc1)C(N)=O` : ____
4.2

---

- run description: Preclinical pharmacokinetics in monkeys
- Format: in vivo, Cynomolgus monkey
- conditions used: male, cynomolgus monkey, in vivo, po, 30 mg/kg
reported endpoint: Vd/F (L/kg)
Write the value in L/kg as a bare number.

Reported Vd/F, compound CS(=O)(=O)O.C[C@H](NCc1ccc(-c2ccc(C(F)(F)F)cc2)cc1)C(N)=O [KDS2010] : ____
6.27

---

- run description: Preclinical pharmacokinetics in monkeys
- Assay type: in vivo, Cynomolgus monkey
- conditions used: male, cynomolgus monkey, in vivo
reported endpoint: Tmax

Reported Tmax, compound `CS(=O)(=O)O.C[C@H](NCc1ccc(-c2ccc(C(F)(F)F)cc2)cc1)C(N)=O` : ____
2 to 6 h

---

- run description: Preclinical pharmacokinetics in monkeys
- Format: in vivo, Cynomolgus monkey
- conditions used: male, cynomolgus monkey, in vivo, po, 10 mg/kg
reported endpoint: Vd/F (L/kg)
Write the value in L/kg as a bare number.

Reported Vd/F, compound `CS(=O)(=O)O.C[C@H](NCc1ccc(-c2ccc(C(F)(F)F)cc2)cc1)C(N)=O` : ____
4.49

---

- run description: Preclinical pharmacokinetics in mice
- Format: in vivo, mouse
- conditions used: in vivo; APP/PS1 mouse, 10 mg/kg single oral administration
reported endpoint: half-life (min)
Write the value in min as a bare number.

Reported half-life, molecule `CS(=O)(=O)O.C[C@H](NCc1ccc(-c2ccc(C(F)(F)F)cc2)cc1)C(N)=O` : ____
342

---

- run description: Preclinical pharmacokinetics in mice
- Assay type: in vivo, mouse
- conditions used: in vivo; ICR mouse, 5 mg/kg single oral administration; read-out: CL/F (converted)
reported endpoint: CL/F (mL/min/kg)
Write the value in mL/min/kg as a bare number.

Reported CL/F, compound CS(=O)(=O)O.C[C@H](NCc1ccc(-c2ccc(C(F)(F)F)cc2)cc1)C(N)=O [KDS2010] : ____
18

---

- run description: Preclinical pharmacokinetics in monkeys
- Format: in vivo, Cynomolgus monkey
- conditions used: male, cynomolgus monkey, in vivo, po, 10 mg/kg, t1/2
- Experimental: In a pharmacokinetic study, plasma PK parameters were measured after a single oral administration of […] dose group and at 4 to 6 hours after administration in the 30 mg/kg dose group. In the elimination phase, the […] Systemic exposure (AUClast) to the test substance was 30587 and 80770 ng*hr/mL, respectively. […]
reported endpoint: half-life
Reply with a number, then the unit it belongs to.

Reported half-life, molecule `CS(=O)(=O)O.C[C@H](NCc1ccc(-c2ccc(C(F)(F)F)cc2)cc1)C(N)=O` : ____
13.7 h
